# Tested on: WA09 hES cells
# condition_set: human, 72 h
# Teratogenicity Potential (μM) Cell Viability per record follows
metric: Teratogenicity Potential (μM) Cell Viability (µM)

{"compound": "CCN(CC)CCNC(=O)c1cc(Cl)c(N)cc1OC [Metoclopramide]", "target_entity": "WA09 hES cells", "modifier": ">", "experimental_value": 300}
{"compound": "CN(CCOc1ccc(CC2SC(=O)NC2=O)cc1)c1ccccn1 (stereo not shown)", "target_entity": "WA09 hES cells", "modifier": "=", "experimental_value": 21.8}
{"compound": "NC(=O)NO [Hydroxyurea]", "target_entity": "WA09 hES cells", "modifier": "=", "experimental_value": 251.6}
{"compound": "CCCC(CCC)C(=O)O", "target_entity": "WA09 hES cells", "modifier": "=", "experimental_value": 1113.7}
{"compound": "O=c1[nH]cc(F)c(=O)[nH]1", "target_entity": "WA09 hES cells", "modifier": "=", "experimental_value": 2}
{"compound": "CN(C)CCOC(C)(c1ccccc1)c1ccccn1 (stereo not shown)", "target_entity": "WA09 hES cells", "modifier": ">", "experimental_value": 300}
{"compound": "CC1=C(/C=C/C(C)=C/C=C/C(C)=C/C(=O)O)C(C)(C)CCC1 [All-trans Retinoic Acid]", "target_entity": "WA09 hES cells", "modifier": "=", "experimental_value": 114.5}
{"compound": "O=C1NS(=O)(=O)c2ccccc21", "target_entity": "WA09 hES cells", "modifier": ">", "experimental_value": 300}
{"compound": "CCC(=O)NCC[C@@H]1CCc2ccc3c(c21)CCO3", "target_entity": "WA09 hES cells", "modifier": ">", "experimental_value": 300}
{"compound": "Cc1ncc(C[n+]2csc(CCO)c2C)c(N)n1", "target_entity": "WA09 hES cells", "modifier": ">", "experimental_value": 300}
{"compound": "CCN(CC)C(=O)/C(C#N)=C/c1cc(O)c(O)c([N+](=O)[O-])c1", "target_entity": "WA09 hES cells", "modifier": "=", "experimental_value": 127}
{"compound": "CC1(C)S[C@@H]2[C@H](NC(=O)[C@H](N)c3ccc(O)cc3)C(=O)N2[C@H]1C(=O)O", "target_entity": "WA09 hES cells", "modifier": ">", "experimental_value": 300}
{"compound": "Nc1nc(NC2CC2)c2ncn([C@H]3C=C[C@@H](CO)C3)c2n1", "target_entity": "WA09 hES cells", "modifier": "=", "experimental_value": 94.1}
{"compound": "COc1ccccc1Oc1c(NS(=O)(=O)c2ccc(C(C)(C)C)cc2)nc(-c2ncccn2)nc1OCCO", "target_entity": "WA09 hES cells", "modifier": "=", "experimental_value": 221.9}
{"compound": "CN(Cc1cnc2nc(N)nc(N)c2n1)c1ccc(C(=O)N[C@@H](CCC(=O)O)C(=O)O)cc1 [Methotrexate]", "target_entity": "WA09 hES cells", "modifier": "=", "experimental_value": 0.05}
{"compound": "CS(=O)(=O)CCNCc1ccc(-c2ccc3ncnc(Nc4ccc(OCc5cccc(F)c5)c(Cl)c4)c3c2)o1", "target_entity": "WA09 hES cells", "modifier": "=", "experimental_value": 20.8}
{"compound": "CC[C@H](C)C(=O)O[C@H]1C[C@@H](C)C=C2C=C[C@H](C)[C@H](CC[C@@H]3C[C@@H](O)CC(=O)O3)[C@H]21", "target_entity": "WA09 hES cells", "modifier": "=", "experimental_value": 4.1}
{"compound": "Nc1ccn(C[C@@H](CO)OCP(=O)(O)O)c(=O)n1", "target_entity": "WA09 hES cells", "modifier": "=", "experimental_value": 1.9}
{"compound": "CC(C)(S)[C@@H](N)C(=O)O", "target_entity": "WA09 hES cells", "modifier": ">", "experimental_value": 300}

====

# Tested on: WA09 hES cells
# test_summary: Phase 2 targeted biomarker assay, ornithine/cystine ratio, 9-point dose response
# condition_set: training and test set; o/c ratio scored against therapeutic Cmax
# Method: Undifferentiated hES Cell Line Maintenance (Phases 1 and 2). […] Phase 2 hES Cell Compound Exposure. […] Cell viability was assessed using the CellTiter-Fluor Cell Viability Assay. A quality control step was included with criteria that the CV of the measured viability RFU of the DMSO control cells could not exceed 10% for a plate to undergo LC-HRMS analysis. […]

{"compound": "Nc1nc(N)c2nc(CNc3ccc(C(=O)N[C@@H](CCC(=O)O)C(=O)O)cc3)cnc2n1 [Aminopterin]", "Targeted Biomarker Assay prediction": "TER"}
{"compound": "CC(=O)CC(c1ccccc1)c1c(O)c2ccccc2oc1=O (stereo not shown) [Warfarin]", "Targeted Biomarker Assay prediction": "TER"}
{"compound": "CC1(C)S[C@@H]2[C@H](NC(=O)Cc3ccccc3)C(=O)N2[C@H]1C(=O)O [Penicillin G]", "Targeted Biomarker Assay prediction": "NON"}
{"compound": "CCOC(=O)N1CCC(=C2c3ccc(Cl)cc3CCc3cccnc32)CC1 [Loratadine]", "Targeted Biomarker Assay prediction": "NON"}

====

# System: WA09 hES cells
# test_summary: Phase 2 targeted biomarker assay, ornithine/cystine ratio, 9-point dose response
# condition_set: human, 72 h

{"molecule": "CC[C@H](C)C(=O)O[C@H]1C[C@@H](C)C=C2C=C[C@H](C)[C@H](CC[C@@H]3C[C@@H](O)CC(=O)O3)[C@H]21 [Lovastatin]", "output_unit": "µM", "Teratogenicity Potential (μM) O/C Ratio": 1.3}
{"molecule": "N[C@@H](CC(=O)N1CCn2c(nnc2C(F)(F)F)C1)Cc1cc(F)c(F)cc1F [Sitagliptin]", "output_unit": "µM", "Teratogenicity Potential (μM) O/C Ratio": 22.6}
{"molecule": "CC1=C(/C=C/C(C)=C/C=C/C(C)=C\\C(=O)O)C(C)(C)CCC1 [13-cis Retinoic Acid]", "output_unit": "µM", "Teratogenicity Potential (μM) O/C Ratio": 0.0007}
{"molecule": "CNCCC(Oc1ccc(C(F)(F)F)cc1)c1ccccc1 (stereo not shown) [Fluoxetine]", "output_unit": "µM", "Teratogenicity Potential (μM) O/C Ratio": 25.1}

====

# Test system: hES cells
# test_summary: ADMA/cystine ratio simplified predictive model in hES cell spent media
# Format: cell-based, human
# condition_set: single dose per treatment; ratios less than 0.9 indicate teratogenicity

{"molecule": "N[C@@H](Cc1cc(I)c(Oc2cc(I)c(O)c(I)c2)c(I)c1)C(=O)O [Levothyroxine]", "Model Predictions ADMA/Cystine": "Non"}
{"molecule": "Nc1nc(N)c2nc(CNc3ccc(C(=O)N[C@@H](CCC(=O)O)C(=O)O)cc3)cnc2n1 [Aminopterin]", "Model Predictions ADMA/Cystine": "Ter"}
{"molecule": "CS(=O)(=O)OCCCCOS(C)(=O)=O [Busulfan]", "Model Predictions ADMA/Cystine": "Ter"}
{"molecule": "O=C1O[C@H]([C@@H](O)CO)C(O)=C1O [Ascorbic Acid]", "Model Predictions ADMA/Cystine": "Non"}
{"molecule": "O=c1[nH]cc(F)c(=O)[nH]1 [5-Fluorouracil]", "Model Predictions ADMA/Cystine": "Ter"}

====

# System: hES cells
# test_summary: devTOX computational model predictions (Version 2.0, Version 2.1) from hES cell metabolomics
# Assay type: cell-based, human
# condition_set: single dose per treatment (Dose column)
metric: Model Predictions Version 2.1

{"compound": "N[C@@H](Cc1cc(I)c(Oc2cc(I)c(O)c(I)c2)c(I)c1)C(=O)O", "target_entity": "hES cells", "experimental_value": "Non"}
{"compound": "CN(C)CCOC(c1ccccc1)c1ccccc1 [Diphenhydramine]", "target_entity": "hES cells", "experimental_value": "Non"}
{"compound": "Nc1nc2ncc(CNc3ccc(C(=O)N[C@@H](CCC(=O)O)C(=O)O)cc3)nc2c(=O)[nH]1", "target_entity": "hES cells", "experimental_value": "Non"}
{"compound": "O=C1O[C@H]([C@@H](O)CO)C(O)=C1O", "target_entity": "hES cells", "experimental_value": "Non"}
{"compound": "O=C1NS(=O)(=O)c2ccccc21", "target_entity": "hES cells", "experimental_value": "Non"}
{"compound": "NC(=O)NO [Hydroxyurea]", "target_entity": "hES cells", "experimental_value": "Ter"}
{"compound": "CC1(C)S[C@@H]2[C@H](NC(=O)[C@H](N)c3ccc(O)cc3)C(=O)N2[C@H]1C(=O)O", "target_entity": "hES cells", "experimental_value": "Non"}
{"compound": "CS(=O)(=O)OCCCCOS(C)(=O)=O", "target_entity": "hES cells", "experimental_value": "Ter"}
{"compound": "O=C1CCC(N2C(=O)c3ccccc3C2=O)C(=O)N1 (stereo not drawn) [Thalidomide]", "target_entity": "hES cells", "experimental_value": "Ter"}
{"compound": "Nc1nc(N)c2nc(CNc3ccc(C(=O)N[C@@H](CCC(=O)O)C(=O)O)cc3)cnc2n1", "target_entity": "hES cells", "experimental_value": "Ter"}
{"compound": "C=CC=O", "target_entity": "hES cells", "experimental_value": "Ter"}
{"compound": "O=C1NC(=O)C(c2ccccc2)(c2ccccc2)N1", "target_entity": "hES cells", "experimental_value": "Non"}
{"compound": "NNC(=O)c1ccncc1", "target_entity": "hES cells", "experimental_value": "Ter"}
{"compound": "O=c1[nH]cc(F)c(=O)[nH]1", "target_entity": "hES cells", "experimental_value": "Ter"}
{"compound": "CC1(C)S[C@@H]2[C@H](NC(=O)Cc3ccccc3)C(=O)N2[C@H]1C(=O)O", "target_entity": "hES cells", "experimental_value": "Non"}
